Target: human GPR40 (Homo sapiens)
Assay: IP turnover assay in transiently transfected COS-7 cells
Format: cell-based
EXPERIMENTAL_ENDPOINT: EC50 (µM)
Output spec: scalar in µM, unitless text.

{"columns": ["COMPOUND", "EXPERIMENTAL_ENDPOINT", "UNIT", "RESULT_NUMBER"],
 "data": [
  ["COc1ccc(F)c(-c2ccc(COc3cccc([C@@H](CC(=O)O)C4CC4)c3)cc2C2=CCCC2(C)C)c1 [AM-1638]", "EC50", "µM", 0.0251]
]}

Let us move to another entry and its EC50.
Just so you know, measured EC50 for CC/C=C\C/C=C\C/C=C\C/C=C\C/C=C\C/C=C\CCC(=O)O [DHA, docosahexaenoic acid] came out at 12

====

Biological target: human GPR40 (Homo sapiens, UniProt O14842)
Sequence (O14842 whole entry): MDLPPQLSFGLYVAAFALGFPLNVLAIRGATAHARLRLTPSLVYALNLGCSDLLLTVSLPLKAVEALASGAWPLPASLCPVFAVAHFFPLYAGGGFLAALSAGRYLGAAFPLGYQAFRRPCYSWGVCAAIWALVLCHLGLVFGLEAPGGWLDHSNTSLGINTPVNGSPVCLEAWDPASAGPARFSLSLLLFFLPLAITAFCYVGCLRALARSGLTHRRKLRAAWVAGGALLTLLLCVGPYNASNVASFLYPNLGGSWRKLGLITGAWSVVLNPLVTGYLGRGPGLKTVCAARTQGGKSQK
Format: binding
EXPERIMENTAL_ENDPOINT: IC50 (nM)
Answer in nM, number only, no unit symbol.

Consider `COc1ccc(F)c(-c2ccc(COc3cccc([C@@H](CC(=O)O)C4CC4)c3)cc2C2=CCCC2(C)C)c1` . Its measured IC50 is 29

====

Target: human GPR40 (Homo sapiens, UniProt O14842)
Type: binding
EXPERIMENTAL_ENDPOINT: pIC50
# pIC50 = -log10(concentration in molar units)

Considering `COc1ccc(F)c(-c2ccc(COc3cccc([C@@H](CC(=O)O)C4CC4)c3)cc2C2=CCCC2(C)C)c1` , its pIC50 with human GPR40 (Homo sapiens, UniProt O14842) was recorded as 7.59

====

Biological target: human GPR40 (Homo sapiens)
Test: cAMP accumulation assay in transiently transfected COS-7 cells
Type: cell-based
EXPERIMENTAL_ENDPOINT: EC50

Reading of EC50 for `CC/C=C\C/C=C\C/C=C\C/C=C\C/C=C\C/C=C\CCC(=O)O` with human GPR40 (Homo sapiens): > 1000 µM
